Assay: HepG2 cytotoxicity, primary screen, cytotoxicity control for P. falciparum antimalarial project, cell-based, ATP luminescence (AID 2303);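 note: 0% = DMSO wells and 100% = digitonin-killed cells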
Settings: HepG2 viability, 24-48 h, at 10 µM
Calls of active or inactive are those of the source.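 Rule for the calls: active = inhibition above 50%; inactive = the rest.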
Classes used: 1 for active, 0 for inactive

| molecule | class_name |
| --- | --- |
| Cc1nc(Nc2ccc(F)cc2)nc(N2CCc3ccccc3C2C)c1CO (configuration not stated) | 0 |
| COC(=O)c1cccc(CNCc2ccc(-c3ccc(-c4nc5ccc(C(F)(F)F)cc5[nH]4)cc3)cc2)c1 | 0 |
| O=C(Cc1n[nH]c(=O)c2ccccc12)Nc1cccc(C(=O)Nc2cccc(C(F)(F)F)c2)c1 | 0 |
| N#CC(c1ccc(F)cc1)c1ccc2c(C(F)(F)F)cc(C(F)(F)F)nc2n1 (configuration not stated) | 0 |
| CC1(C)N=C(N)N=C(N)N1OCCSc1ccccc1 | 1 |
| CN(C)Cc1c(O)ccc2[nH]c(-c3ccc(OC(F)(F)F)cc3)nc12 | 0 |
| CC(C)c1ccc(-c2noc(SCC(=O)N(C)c3ccc(F)cc3)n2)cc1 | 0 |
| Cc1noc(C)c1-c1ccc2c(Nc3ccccc3C(C)(C)C)c(C(=O)NC3CCCC3)cnc2c1 | 0 |
| CC(C)NCC(O)COc1ccc(Cc2ccc(OCC(O)CNC(C)C)cc2)cc1 (configuration not stated) | 0 |
| COc1ccccc1C1CCN(CCN2CCC(NC(=O)c3ccc(-c4ccc(C#N)cc4)cc3)CC2)CC1 | 0 |
| O=C(NCc1ccc(C(F)(F)F)cc1)c1cccc(-c2nnc(-c3cccc(-c4cncnc4)c3)o2)c1 | 0 |
| S=C(NCCCCCN1CCC(c2c[nH]c3ccccc23)CC1)Nc1cccc(I)c1 | 1 |
| COc1ccc(N2CCN(CCCOc3ccc(NC(=O)c4cc(Cl)cc(Cl)c4)cc3)CC2)c(OC)c1 | 0 |
| CC(=O)c1ccc(O)c(CC(O)CO)c1 (configuration not stated) | 0 |
| CCCc1cc(NCc2ccncc2)nc(Nc2ccc(F)cc2)n1 | 0 |
| COc1ccc(-c2cccc(NC(=O)c3ccc(Cl)cc3)c2)cc1CN1CCC(O)CC1 | 1 |
| O=C(Cc1cccc(Cl)c1)Nc1ccc(N2CCC(NCc3ccc4ncccc4c3)CC2)cc1 | 0 |
| Cc1cc(C)cc(OCC(O)CN(Cc2cc(Cl)cc(Cl)c2)C(=O)Nc2ccccc2Cl)c1 (configuration not stated) | 0 |
| N=c1ccn(CC(=NO)c2ccc(Cl)c(Cl)c2)cc1 | 0 |
| Cc1nc(-c2nc(N3CCOCC3)ncc2-c2ccsc2)sc1C | 0 |
| CCC(=O)OC(CCN(CC)CC)(c1ccccc1)c1ccccc1 | 0 |
| COc1cc(Nc2nc(N)c3cc(OC)c(OC)cc3n2)cc(OC)c1 | 0 |
| N#Cc1ccc(NC(=NCc2cccnc2)Nc2ccc(-c3ccccc3)cc2)c(O)c1 | 0 |
| COc1ccc(-c2c3c(=O)n(C)c(=O)n(C)c3c3nnc4ccccc4n23)cc1 | 0 |
| O=C(Nc1ccc(C(F)(F)F)cc1)c1cccc(S(=O)(=O)NC2CCN(Cc3ccccc3)C2)c1 (configuration not stated) | 0 |
| Cc1ccc(C(=O)Cn2nc(-c3ccc(C)c(S(=O)(=O)N4CCCC4)c3)ccc2=O)cc1 | 0 |
| Cc1ccc(/C=C/C(=O)NCCCCCN2CCCN(C(=O)Nc3ccc(Cl)c(Cl)c3)CC2)cc1 | 0 |

----------
Experiment: HepG2 cytotoxicity, primary screen, cytotoxicity control for P. falciparum antimalarial project, cell-based, ATP luminescence (AID 2303);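 note: 0% = DMSO wells and 100% = digitonin-killed cells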
Conditions: HepG2 viability, 24-48 h, at 10 µM
Active and inactive are the calls of the source.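 Rule for the calls: active = inhibition above 50%; inactive = the rest.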
Classes used: yes (1) for active, no (0) for inactive

| compound | class_name |
| --- | --- |
| COc1ccccc1CCNc1nc(C)cc(N[C@@H](Cc2ccccc2)C(=O)NCCCOC(C)C)n1 | no (0) |
| O=C(/C=C/c1ccccc1Cl)Nc1ccc(Br)c(OCCN2CCN(CCN3CCCC3)CC2)c1 | no (0) |
| CN(c1ccc(NC(=O)Nc2cc(C(C)(C)C)on2)cc1)c1ccnc(NCCOC(=O)Nc2cc(C(C)(C)C)on2)n1 | yes (1) |
| COc1ccc(NC(=O)Nc2ccc(Nc3nc(C)cc(N4CCCC4)n3)cc2)cc1 | no (0) |
| CCCCCCCCOc1c(OCC)cc(Cc2cnc(N)nc2N)cc1OCC | no (0) |
| CCOc1cc(C(=O)NCCCN2CCCCC2C)ccc1-c1nc2ccc(Cl)cc2[nH]1 (stereo not drawn) | no (0) |
| CCCCCN1CCCC(NS(=O)(=O)c2ccc(C(=O)Nc3cccc(C(F)(F)F)c3)cc2)C1 (stereo not drawn) | no (0) |
| Nc1nc2c(ncn2OC[C@H]2COP(=O)(O)CO2)c(=O)[nH]1 | no (0) |
| CCCN1CCN(Cc2ccc(-c3ccc(-c4nc5ccccc5[nH]4)s3)cc2)CC1 | no (0) |
| NC(N)=Nc1nc(-c2cccc(NCCCCCCCCON3C(N)=NC(N)=NC34CCCCC4)c2)cs1 | no (0) |
| Cc1ccc(NC(=O)c2cn(-c3ccccc3)nc2-c2ccc(F)cc2)cc1[N+](=O)[O-] | no (0) |
| CCOC(=O)c1c[nH]c2c(sc3cc(OC)ccc32)c1=O | no (0) |
| COc1ccc2ncc(F)c(CCN3CCC(NCc4cnc5c(c4)NC(=O)CS5)CC3)c2c1 | no (0) |

----------
Assay: HepG2 cytotoxicity, primary screen, cytotoxicity control for P. falciparum antimalarial project, cell-based, ATP luminescence (AID 2303);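 note: 0% = DMSO wells and 100% = digitonin-killed cells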
Details: HepG2 viability, 24-48 h, at 10 µM
Calls of active or inactive are those of the source.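 How the source made its calls: active means inhibition above 50%; inactive means the rest.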
Classes used: yes for active, no for inactive

| molecule | class_name |
| --- | --- |
| Cc1ccn2cc(-c3ccc(NC(=O)c4ccc(Br)o4)cc3)nc2c1 | yes |
| CCN(CC)CCN(Cc1ccc(-c2ccc(C(F)(F)F)cc2)cc1)C(=O)Cn1c(CCc2cccc(F)c2F)cc(=O)c2c1CCCC2 | yes |
| CC(C)(C)COc1ccc2c(N)n[nH]c2c1 | no |
| O=C(NC1CCCCN(Cc2ccccc2O)C1)c1ccc(Cl)c(Cl)c1 (centres undefined) | no |
| Cc1ccc2nc(C)n(C3CCN(C(=O)C4(c5ccccc5)CC4)CC3)c2c1 | no |
| CCOC(=O)C1=C(C)N=c2sc(=Cc3cc(Cl)ccc3O)c(=O)n2C1c1cc(OC)c(OC)cc1Br (centres undefined) | no |
| c1ccc(CN2CCN(c3cc(-c4cncc(-c5ccccc5)c4)nc(-c4ccccc4)n3)CC2)cc1 | no |
| CC1CC(C)CN(S(=O)(=O)c2cc(C(=O)Nc3cccc([N+](=O)[O-])c3)ccc2Br)C1 (centres undefined) | no |
| CC(C)Cn1c(Sc2ccc(C#N)c([N+](=O)[O-])c2)nnc1-c1ccccc1 | no |
| COc1cccc(CC(=O)NC2CCN(c3ccnc4cc(Cl)ccc34)C2)c1 (centres undefined) | no |
| Cc1[nH]nc2cc(F)c(-c3cc(OC[C@@H](N)Cc4ccccc4)cnc3-c3ccoc3)cc12 | no |
| O=C(N1CCN(c2ccnc3cc4c(cc23)N(Cc2ccccc2)CC4)CC1)C(F)(F)F | no |
| COc1cc(F)c2nccc([C@@H](O)CN3CCC(NCc4cc5c(cc4F)OCCO5)CC3)c2c1 | no |
| N#Cc1ccc(NC(=NC2Cc3ccccc3C2)Nc2cccc(Cl)c2Cl)c(O)c1 | no |
| Oc1ccc(-c2cc(COc3ccccc3C(F)(F)F)c(C3=CCNCC3)cc2COc2ccccc2C(F)(F)F)cc1 | no |
| Cc1ccccc1C1CCN(C2CCC(NC(=O)/C=C/c3ccc(C(F)(F)F)cc3)CC2)CC1 (centres undefined) | yes |
| C[C@@H]1CN(c2cnn(C/C=C/c3ccc(NC(=O)c4ccc5nonc5c4)cc3)c(=O)c2Cl)C[C@H](C)N1 | yes |
| CCCCCN1CCCC1CNS(=O)(=O)c1cccc(C(=O)Nc2cccc(C(F)(F)F)c2)c1 (centres undefined) | no |
| CCCCCCCc1c(C)[nH]c2cccc(OC)c2c1=O | no |
| CCc1cc(-c2onc(C)c2-c2cc3ccccc3o2)c(O)cc1OC | no |
| c1ccc2cc3c(NCCN4CCOCC4)ccnc3cc2c1 | no |
| O=C(CC(=O)C(F)(F)F)c1ccc2c(c1)OCO2 | no |
| Cc1cc(C)c(NC(=O)N2CCCN(CCCCCNC(=O)/C=C/c3ccc(Cl)c(Cl)c3)CC2)c(C)c1 | no |
| CC[C@H](C)CNC(=O)c1cncc(-c2ccc(CN3CCC(N4CCCC4)CC3)cc2)c1 | no |

----------
Assay: HepG2 cytotoxicity, primary screen, cytotoxicity control for P. falciparum antimalarial project, cell-based, ATP luminescence (AID 2303);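 note: 0% = DMSO wells and 100% = digitonin-killed cells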
Conditions: HepG2 viability, 24-48 h, at 10 µM
The source made the active and inactive calls.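 How the source made its calls: active means inhibition above 50%; inactive means the rest.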
Classes used: Y = active, N = inactive

| molecule | class_name |
| --- | --- |
| O=C(NCc1ccc(Cl)cc1)c1ccc(CN2CCCN(CC3CCCCC3)CC2)cc1 | N |
| COc1ccc(-n2ncc(C(=O)N3CCC4(C3)C(=O)N(c3ccccc3)c3ccccc34)c2C)cc1 (stereo unspecified) | N |
| CC1(C)N=C(N)N=C(N)N1OCCCOc1ccccc1N | Y |
| CC(C)CN1CCN(CCNc2c3ccccc3nc3ccccc23)CC1 | N |
| Cc1ccc(NC(=O)Nc2ccc(Br)cc2)cc1OCCN(C)C | N |
| Cc1cc(Nc2ccc(Cl)c(Cl)c2)n2nc(C)nc2n1 | N |
| CN(C)CCOc1ccc2[nH]c(-c3cccc(OCc4ccccc4)c3)nc2c1C#N | N |
| Cc1ccc2c(=O)n(C)c(=O)n(C)c2n1 | N |
| Cc1cccc2[nH]c(-c3cccc(-c4cccc(NC(=O)c5cnccc5C(F)(F)F)c4)c3)nc12 | N |
| O=C(c1cc2c(s1)-c1cccc(Cl)c1SC2)N1CCN(c2ccncc2)CC1 | N |
| FC(F)(F)c1cc(C(F)(F)F)c2cc(CNCCCNc3nc4ccccc4[nH]3)[nH]c2c1 | Y |
| NC(=O)C1CCN(Cc2ccc(-c3ccc(-c4nc5ccc(C(F)(F)F)cc5[nH]4)s3)cc2)CC1 | N |
| CCN(CC)CCNC(=O)/C(=C/C=C/c1cc2cc(Cl)c(Cl)cc2[nH]1)OC | N |
| CCN1CCN(c2cc(C)c3cc(NC(=O)c4cccc(OC)c4)ccc3n2)CC1 | N |
| COc1cc2c(cc1COc1ccccc1)CCN1Cc3cc(OC)c(OC)cc3CC21 (stereo unspecified) | N |
| COc1ccc(NC(=O)c2cn(-c3ccc(C(C)(C)C)cc3)nc2C)cc1N1CCN(C)CC1 | N |
| O=C(Nc1ccc(Cl)cc1)Nc1ccc(-c2ccc(-c3nc4ccccc4[nH]3)cc2)cc1 | N |
| CCN(CCCNc1nc(=S)[nH]c2cc(OC)c(OC)cc12)c1ccccc1 | N |
| CCN(CC)CCN(Cc1ccc(-c2ccc(C(F)(F)F)cc2)cc1)C(=O)Cn1c(CCc2ccc(F)c(C#N)c2)nc(=O)c2ccccc21 | N |
| CSc1nc2nc(C)c(Cc3cccc(C(F)(F)F)c3)c(C)n2n1 | N |
| COc1ccc(-c2ccc(NC(=O)c3ccc(C#N)cc3)cc2)cc1CNC(C)C | N |
